System: PAMPA artificial membrane permeability, UV readout, 30 min
Experiment: PAMPA effective permeability – biophysical, pH 7.4, 6.2, 5.0, ADME assay, late-stage follow-up (AID 1557)
Settings: measured here: permeability at pH 6.2; at 50 µM; stronger effect = higher value
OUTCOME_MEASURE: effective permeability pH 6.2

// effective permeability pH 6.2 lookup, compound = `C=CCn1c(SCC(=O)c2ccc(O)c(O)c2)nnc1-c1ccccc1OC` , result: 98 10-6 cm/s

---

Tested on: PAMPA artificial membrane permeability, UV readout, 30 min
Test: PAMPA effective permeability – biophysical, pH 7.4, 6.2, 5.0, ADME assay, late-stage follow-up (AID 1557)
Settings: measured here: permeability at pH 5.0; at 50 µM; stronger effect = higher value
OUTCOME_MEASURE: effective permeability pH 5.0

Documented effective permeability pH 5.0 of `C=CCn1c(SCC(=O)c2ccc(O)c(O)c2)nnc1-c1ccccc1OC` : 90 10-6 cm/s
